Cited source for all entries: patent US6528494B2

# subjectOfTest: adenosine 1 receptor (Homo sapiens)
# Sequence (P30542 1-326): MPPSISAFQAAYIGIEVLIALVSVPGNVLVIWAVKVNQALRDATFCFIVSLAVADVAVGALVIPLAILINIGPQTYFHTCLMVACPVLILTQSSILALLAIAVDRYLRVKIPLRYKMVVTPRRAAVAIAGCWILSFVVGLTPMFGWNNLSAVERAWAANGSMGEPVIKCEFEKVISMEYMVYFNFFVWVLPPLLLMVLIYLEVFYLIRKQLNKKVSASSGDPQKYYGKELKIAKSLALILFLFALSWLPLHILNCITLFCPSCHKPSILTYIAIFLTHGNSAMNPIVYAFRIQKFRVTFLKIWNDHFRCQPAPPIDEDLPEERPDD
# procedureText: Agonist activity against adenosine 1 receptor (CHO cells, forskolin-enhanced cAMP/SPAP reporter)
# Format: cell-based
# experimentalContext: CHO cells transfected with human receptor; forskolin-enhanced cAMP via SPAP; mean of all the versions tested
# thresholds on A1 EC50 as a ratio of that of NECA define classes: b0 (below 90), b1 (90 to below 200), b2 (200 or more)

Cn1nnc(C2OC(n3cnc4c(NCC(c5ccccc5)c5ccccc5)nc(NC(CO)Cc5ccccc5)nc43)C(O)C2O)n1 (centres unmarked) ... b2
CCC(CC)Nc1nc(NCCc2cn(C)cn2)nc2c1ncn2[C@@H]1O[C@H](c2nnn(C)n2)[C@@H](O)[C@H]1O.O=CO ... b2
CCn1nnc([C@H]2O[C@@H](n3cnc4c(NCC(c5ccccc5)c5ccccc5)nc(NCCc5cccc(N)n5)nc43)[C@H](O)[C@@H]2O)n1.O=C(O)C(F)(F)F.O=C(O)C(F)(F)F.O=C(O)C(F)(F)F ... b0
CCn1nnc(C2OC(n3cnc4c(NCCc5ccccc5)nc(NC(CO)Cc5ccccc5)nc43)C(O)C2O)n1 (centres unmarked) ... b1
Cn1nnc(C2OC(n3cnc4c(NC(CO)Cc5ccccc5)nc(NCCN5CCCC5)nc43)C(O)C2O)n1 (centres unmarked) ... b2

Task: Class (by measured A1 EC50 as a ratio of that of NECA) for CCn1nnc([C@H]2O[C@@H](n3cnc4c(N)nc(NCCc5ccc(OC)cc5)nc43)[C@H](O)[C@@H]2O)n1.O=CO
Output: b1

Task: Class (by measured A1 EC50 as a ratio of that of NECA) for CCn1nnc(C2OC(n3cnc4c(NC(CO)Cc5ccccc5)nc(NCCc5cn(C)cn5)nc43)C(O)C2O)n1 (centres unmarked)
Output: b0

Task: Class (by measured A1 EC50 as a ratio of that of NECA) for CC(C)C(CO)Nc1nc(NCC(c2ccccc2)c2ccccc2)c2ncn(C3OC(c4nnn(C)n4)C(O)C3O)c2n1 (centres unmarked)
Output: b0

Task: Class (by measured A1 EC50 as a ratio of that of NECA) for CCn1nnc([C@H]2O[C@@H](n3cnc4c(NCc5ccccc5)nc(NCCc5cn(C)cn5)nc43)[C@H](O)[C@@H]2O)n1
Output: b2

Task: Class (by measured A1 EC50 as a ratio of that of NECA) for CCC(CC)Nc1nc(NC2CCN(Cc3ccccc3)C2)nc2c1ncn2C1OC(c2nnn(CC)n2)C(O)C1O.O=CO.O=CO (centres unmarked)
Output: b0

Task: Class (by measured A1 EC50 as a ratio of that of NECA) for CCn1nnc(C2OC(n3cnc4c(NCc5cccc(I)c5)nc(NC5CCNC5)nc43)C(O)C2O)n1 (centres unmarked) [Example 76]
Output: b2

Task: Class (by measured A1 EC50 as a ratio of that of NECA) for CCn1nnc(C2OC(n3cnc4c(NCc5cccc(I)c5)nc(NC5CCC(N)CC5)nc43)C(O)C2O)n1.O=CO.O=CO (centres unmarked)
Output: b2

Task: Class (by measured A1 EC50 as a ratio of that of NECA) for CCn1nnc(C2OC(n3cnc4c(NC(CO)Cc5ccccc5)nc(NCCN5CCCCC5)nc43)C(O)C2O)n1 (centres unmarked)
Output: b0
